# measured.on: H5 hemagglutinin (HA) of H5N1 influenza A virus, strain not stated (influenza A virus (H5N1), strain not stated)
# test.method.notes: cross-inhibition of binding to HA; competitor: FLD194
measured.parameter: Inhibition of binding (%)
Report the value in % with no unit label.

// field: Inhibition of binding (%); key: FLA5.10 (antibody, V domains shown) VH: QVQLVQSGAEVKEPGSAMKVSCKASGGTFSSDAFCWVRQAPGRGLEWMGGIIPVFQTANYGPNFQGRVTISADVYTTTLYLELSGLTSEDTAVYFCARSGDGYNYYFPLWGQGTLVTVSS VL: DIQMTQSPSTLSGSVGDRVTITCRASQNIGPWLAWYQQESGKAPKLLISRASILESGVPSRFSGTGTGTEFTLTISSLQPDDFATYYCQHYNAYWGTFGQGTKVEIN ; value = 100

Form: binder = FLD127 (antibody, V domains shown) VH: QVQLVESGGGVVQPGRSLRLSCAASGFTFSSYGMHWVRQAPGKGLEWVAVIWYDGDNKYYGDSVKGRFTISRDNSKNTLFLQMNSLRAEDTAVYYCAKDTADHGDYVDLGFFDAWGQGTLVTVSS VL: DIQMTQSPSSVSASVGDRVTITCRASQDVSTWLAWYQLKPGKAPKLLIYAASSLQSGVPSRFSGSGSGTDFTLTVSSLQPEDFATYYCQQANSFPFTFGPGTKVDIK ; Inhibition of binding (%) = 0

Inhibition of binding (%) for FLD84 (antibody, V domains shown) VH: QVQLQESGPGLVKPSETLSLICAVSGASISSSYWSWIRQPPGKGLEWIGYIYYSGVTKYNPSLKSRVTLSVDTSKNHFSLKLSYVTAADTAVYYCARNLPDIAVVTAVQDATPVWFDPWGPGTLVSVSS VL: DIQLTQSPSSLSASVGDRVTITCRASQGIITYLNWYQQKPGKAPKLLIYATYSLQNGVPSRFSGSGSGTDFTLTISSLQPEDFATYYCQQSYSSLMFTFGQGTKLDIK is 0
